Reported pEC50 values for the following compounds.
measurement target: human TPO receptor (hTPOR) (Homo sapiens, UniProt P40238)
Construct: expressed in transfected cells; host or cells: BaF-B03 (murine IL-3 dependent cell line)
Sequence (P40238 26-635): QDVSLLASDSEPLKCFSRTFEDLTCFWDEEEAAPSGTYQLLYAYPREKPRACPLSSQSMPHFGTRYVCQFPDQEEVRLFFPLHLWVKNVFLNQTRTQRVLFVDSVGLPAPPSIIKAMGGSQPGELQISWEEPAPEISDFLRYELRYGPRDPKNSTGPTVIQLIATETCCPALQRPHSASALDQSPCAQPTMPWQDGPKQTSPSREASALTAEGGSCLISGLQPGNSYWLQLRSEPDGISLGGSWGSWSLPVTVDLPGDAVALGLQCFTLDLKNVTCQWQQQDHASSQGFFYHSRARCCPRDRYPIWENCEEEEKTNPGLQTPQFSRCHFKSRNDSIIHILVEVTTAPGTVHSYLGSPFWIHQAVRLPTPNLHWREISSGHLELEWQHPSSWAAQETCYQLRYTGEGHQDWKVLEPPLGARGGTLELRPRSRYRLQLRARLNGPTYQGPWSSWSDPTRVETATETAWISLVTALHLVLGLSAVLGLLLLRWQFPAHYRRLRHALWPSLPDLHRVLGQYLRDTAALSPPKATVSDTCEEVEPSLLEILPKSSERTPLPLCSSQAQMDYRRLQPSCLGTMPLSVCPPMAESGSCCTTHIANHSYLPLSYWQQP
assay procedure: Thrombopoietic activity: proliferation of TPO dependent BaF/hTPOR cells (WST-1, absorbance at 450 nm)
Type: cell-based
particulars: 20 h + 4 h WST-1, ED50 = half concentration of the concentration showing the maximum thrombopoietic activity, Table 1
pEC50: −log10 of the molar value.
readout label: pEC50

>>> endpoint_value("CCCCCC(CCc1cccc(-c2csc(NC(=O)c3cc(Cl)c(C=C(C)C(=O)O)c(Cl)c3)n2)c1F)OC (stereo not shown)")
8.87
>>> endpoint_value("CCCCCCC(OC)c1cccc(-c2csc(NC(=O)c3cc(Cl)c(C=C(C)C(=O)O)c(Cl)c3)n2)c1F (stereo not shown)")
9.09
>>> endpoint_value("CCCCCCCCCCOCc1cccc(-c2csc(NC(=O)c3cc(F)c(C=C(C)C(=O)O)c(F)c3)n2)c1F")
8.52
>>> endpoint_value("CCCCCCCCOC(C)c1cccc(-c2csc(NC(=O)c3cc(F)c(C=C(C)C(=O)O)c(F)c3)n2)c1F (stereo not shown)")
9.11
>>> endpoint_value("CC(=Cc1c(F)cc(C(=O)Nc2nc(-c3cccc(CCCOCCCC(C)C)c3F)cs2)cc1F)C(=O)O")
9.00
>>> endpoint_value("CCCCCOCCCc1cccc(-c2csc(NC(=O)c3cc(F)c(C=C(C)C(=O)O)c(F)c3)n2)c1F")
8.87
>>> endpoint_value("CCOC(c1cccc(-c2csc(NC(=O)c3cc(F)c(C=C(C)C(=O)O)c(F)c3)n2)c1F)C1CCCCC1 (stereo not shown)")
8.62

Taken from patent US7601746B2.
